assay method text: chemical genetic growth profiling, strain panel (AID 1159580);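 note: tested at 20 µM; growth read once vehicle control cultures reached saturation at 30 °C; 1 = growth at the plate median or of vehicle wells; lower values mean less growth of the strain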
condition set: S. cerevisiae deletion strains, growth OD, locus YGL078C, strain dbp3, stronger effect = lower value
The whole screen tested about 5,500 compounds, of which about 2,000 (36%) were called active. Inconclusive results (about 18%) are left out. Some of the results follow.
test readout: normalized growth
Could you keep your reply to the number by itself?

Known results for molecules:
[[record]]
molecule = "Cc1ccccc1C(OCCN(C)C)c1ccccc1 (stereo unspecified)"
value_reported = 1

[[record]]
molecule = "O=C1NCC2(CCN(CCc3ccccc3)CC2)O1"
value_reported = 0.994

[[record]]
molecule = "N[C@@H](Cc1ccc(N(CCCl)CCCl)cc1)C(=O)O"
value_reported = 0.986

[[record]]
molecule = "CN(C)CCOC(c1ccc(Cl)cc1)c1ccccn1 (stereo unspecified)"
value_reported = 0.998

[[record]]
molecule = "C=C1CCC2[C@](C)(CO)[C@H](O)CC[C@@]2(C)[C@@H]1C/C=C1/C(=O)OC[C@H]1O (stereo partly specified)"
value_reported = 1.03


Could you now consider this next molecule?
Query :: Any idea what normalized growth was measured for Clc1ccc(C(OCCN2CCCCC2)c2ccccc2)cc1 (stereo unspecified) ?
Result :: 0.99

* * *

assay method text: chemical genetic growth profiling, strain panel (AID 1159580);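 note: tested at 20 µM; growth read once vehicle control cultures reached saturation at 30 °C; 1 = growth at the plate median or of vehicle wells; lower values mean less growth of the strain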
condition set: S. cerevisiae deletion strains, growth OD, locus YKR026C, strain gcn3, stronger effect = lower value
Hit rate of the full screen: of about 5,500 compounds, about 2,000 (36%) were called active. Inconclusive results (about 18%) are left out. Some of the results follow.
Threshold-based label: normalized growth under 1 gives true (1), normalized growth not under 1 gives false (0).

Example entries and their recorded answers appear below.
[[record]]
compound = "O=C(NC(=O)c1ccccc1Cl)Nc1ccc(OC(F)(F)F)cc1"
class_name = "false (0)"

[[record]]
compound = "CN(C)CCOC(c1ccc(Cl)cc1)c1ccccn1 (stereo not drawn)"
class_name = "false (0)"


Query :: I'd appreciate it if you could check whether C[C@]12CCC(=O)C=C1C=CC1C2CC[C@@]2(C)C1CC[C@@]2(O)CCC(=O)O (stereo partly drawn) has normalized growth smaller than 1.
Result :: false (0)

Query :: I'd appreciate it if you could check whether C=C[C@@](C)(O)CCC1C(=C)C[C@H](OC(C)=O)C2C(C)(C)CCCC12C (stereo partly drawn) has normalized growth smaller than 1.
Result :: false (0)

Query :: I'd appreciate it if you could check whether COc1ccc2c(c1)OC/C(=C\c1ccc(OC)c(O)c1)C2=O has normalized growth smaller than 1.
Result :: true (1)

Query :: I'd appreciate it if you could check whether C=C[C@@](C)(O)CCC1C(=C)CCC2[C@@](C)(CO)CCC[C@]12C (stereo partly drawn) has normalized growth smaller than 1.
Result :: false (0)

Query :: I'd appreciate it if you could check whether COc1cc([C@@H]2c3cc4c(cc3C(OC3O[C@@H]5COC(C)O[C@H]5[C@H](O)[C@H]3O)C3COC(=O)[C@@H]32)OCO4)cc(OC)c1O (stereo partly drawn) has normalized growth smaller than 1.
Result :: false (0)

Query :: I'd appreciate it if you could check whether CCOC(=O)n1ccn(C)c1=S has normalized growth smaller than 1.
Result :: true (1)

Query :: I'd appreciate it if you could check whether O=C1NCC2(CCN(CCc3ccccc3)CC2)O1 has normalized growth smaller than 1.
Result :: true (1)

Query :: I'd appreciate it if you could check whether CCN(CC)C(=O)N1CCN(C)CC1 has normalized growth smaller than 1.
Result :: true (1)

Query :: I'd appreciate it if you could check whether COc1ccc(-c2coc3cc(O)ccc3c2=O)c(OC)c1O has normalized growth smaller than 1.
Result :: true (1)

Query :: I'd appreciate it if you could check whether C[n+]1c2cc(N)ccc2cc2ccc(N)cc21 has normalized growth smaller than 1.
Result :: true (1)

Query :: I'd appreciate it if you could check whether CC[C@@]1(O)C[C@H](O[C@H]2C[C@H](N(C)C)[C@H](O)[C@H](C)O2)c2c(cc3c(c2O)C(=O)c2c(O)cccc2C3=O)[C@H]1C(=O)OC has normalized growth smaller than 1.
Result :: true (1)

Query :: I'd appreciate it if you could check whether O=C(/C=C/c1ccc(O)c(O)c1)OC(Cc1ccc(O)c(O)c1)C(=O)O (stereo not drawn) has normalized growth smaller than 1.
Result :: false (0)

* * *

assay method text: chemical genetic growth profiling, strain panel (AID 1159580);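 note: tested at 20 µM; growth read once vehicle control cultures reached saturation at 30 °C; 1 = growth at the plate median or of vehicle wells; lower values mean less growth of the strain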
condition set: S. cerevisiae deletion strains, growth OD, locus YLR403W, strain SFP1
The campaign covered roughly 5,500 compounds. About 2,000 (36%) were called active. Not shown: some 18% with an inconclusive outcome. Rule as the data show it: active = normalized growth mostly below about 0.91 (no sharp cut-off); inconclusive = no clear call, values can overlap the other calls; inactive = mostly above about 0.92. The list shows a part of the results.
Mark one answer only. Choices: active, inactive

Example entries and their recorded answers appear below.
[[record]]
smiles_data = "O=[N+]([O-])c1ccc(ON=C2CCCCC2)c([N+](=O)[O-])c1"
class_name = "inactive"

[[record]]
smiles_data = "N/C(Cn1ccc(C(F)(F)F)n1)=N/OS(=O)(=O)c1cccc(Cl)c1Cl"
class_name = "inactive"

[[record]]
smiles_data = "O=C(/C=C/c1ccc2c(c1)OCO2)Nc1ccc(Br)cc1"
class_name = "inactive"

[[record]]
smiles_data = "Cc1cc(C)cc(Sc2ccc3nnc(-c4ccccc4)n3n2)c1"
class_name = "inactive"

[[record]]
smiles_data = "O=C(Oc1cccc2[nH]ccc12)c1ccc(C(F)(F)F)cc1"
class_name = "inactive"


Query :: So what was the verdict on O=[N+]([O-])c1ccc(-c2noc(-c3ccno3)n2)o1 in this test?
Result :: active

Query :: So what was the verdict on Cc1c(C(=O)Sc2ccc(F)cc2F)sc2nc(C(F)(F)F)nn12 in this test?
Result :: active

Query :: So what was the verdict on CC(C)c1ccc(COC(=O)Nc2ccc(CSc3ccc(Cl)cc3)o2)cc1 in this test?
Result :: inactive

Query :: So what was the verdict on N/C(CCSc1ccc(Cl)cc1)=N/OC(=O)Nc1ccc(Cl)cc1 in this test?
Result :: active

* * *

assay method text: chemical genetic growth profiling, strain panel (AID 1159580);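 note: tested at 20 µM; growth read once vehicle control cultures reached saturation at 30 °C; 1 = growth at the plate median or of vehicle wells; lower values mean less growth of the strain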
condition set: S. cerevisiae deletion strains, growth OD, locus YCL016C, strain dcc1
Among all 5,500 compounds or so, about 2,000 (36%) were called active. Not shown: some 18% with an inconclusive outcome. Rule as the data show it: active = normalized growth mostly below about 0.91 (no sharp cut-off); inconclusive = no clear call, values can overlap the other calls; inactive = mostly above about 0.92. The list shows a part of the results.
Mark one answer only. Choices: TRUE for active, FALSE for inactive

Example entries and their recorded answers appear below.
[[record]]
molecule = "CCCc1cc(C(N)=S)ccn1"
class_name = "FALSE"

[[record]]
molecule = "COC(=O)c1cc(=O)c(O)c2c(O)c(O)ccc2c1"
class_name = "FALSE"

[[record]]
molecule = "C[C@H]1COc2c(N3CCN(C)CC3)c(F)cc3c(=O)c(C(=O)O)cn1c23"
class_name = "FALSE"

[[record]]
molecule = "C[C@]12CCC(=O)C=C1C=CC1C2CC[C@@]2(C)C1CC[C@@]2(O)CCC(=O)O (some centres undefined)"
class_name = "FALSE"

[[record]]
molecule = "CC1CCc2cc(F)cc3c(=O)c(C(=O)O)cn1c23 (centres undefined)"
class_name = "FALSE"


Query :: So what was the verdict on CCn1cc(C(=O)O)c(=O)c2cc(F)c(N3CCNCC3)nc21 in this test?
Result :: FALSE

Query :: So what was the verdict on COc1ccc(-c2coc3cc(O)ccc3c2=O)cc1 in this test?
Result :: FALSE

Query :: So what was the verdict on CC[C@@H](C(=O)C(C)[C@@H](O)[C@H](C)CCc1ccc(C)c(O)c1C(=O)O)C1OC(CC)(C2CC[C@](O)(CC)[C@H](C)O2)C[C@@H]1C (some centres undefined) in this test?
Result :: FALSE

Query :: So what was the verdict on Clc1ccc(C(c2ccc(Cl)cc2)C(Cl)(Cl)Cl)cc1 in this test?
Result :: FALSE

Query :: So what was the verdict on C=CC[C@]1(O)CCC2C3CCC4=CC(=O)CCC4=C3C=C[C@@]21C (some centres undefined) in this test?
Result :: FALSE

Query :: So what was the verdict on COc1cc(CNC(=O)CCCC/C=C/C(C)C)ccc1O in this test?
Result :: FALSE

Query :: So what was the verdict on C=C1CCC2[C@](C)(CO)[C@H](O)CC[C@@]2(C)[C@@H]1C/C=C1/C(=O)OC[C@H]1O (some centres undefined) in this test?
Result :: FALSE

Query :: So what was the verdict on C[C@]12CCC(=O)C=C1C=CC1C2CC[C@@]2(C)C1CC[C@@]21CCC(=O)O1 (some centres undefined) in this test?
Result :: FALSE

Query :: So what was the verdict on COc1ccc(-c2coc3cc(O)ccc3c2=O)c(O)c1O in this test?
Result :: FALSE

Query :: So what was the verdict on COc1ccc(C(CN(C)C)C2(O)CCCCC2)cc1 (centres undefined) in this test?
Result :: FALSE

Query :: So what was the verdict on CC1COc2c(N3CCN(C)CC3)c(F)cc3c(=O)c(C(=O)O)cn1c23 (centres undefined) in this test?
Result :: FALSE

Query :: So what was the verdict on O=C(O)c1cc2cc(F)ccc2[nH]1 in this test?
Result :: FALSE

Query :: So what was the verdict on CO/N=C1/CN(c2nc3c(cc2F)c(=O)c(C(=O)O)cn3C2CC2)CC1CN (centres undefined) in this test?
Result :: FALSE

Query :: So what was the verdict on CCCCCCCCC(=O)NCc1ccc(O)c(OC)c1 in this test?
Result :: FALSE

Query :: So what was the verdict on COc1ccc(C(=O)CC(=O)O)c2c1C=CC(C)(C)O2 in this test?
Result :: FALSE

Query :: So what was the verdict on C=C[C@@](C)(O)CCC1C(=C)C[C@H](OC(C)=O)C2C(C)(C)CCCC12C (some centres undefined) in this test?
Result :: FALSE
